Ref: the supplement of paper PMC10201428

B1: library; a variant is named by its letters at N, in order (parent)
chain: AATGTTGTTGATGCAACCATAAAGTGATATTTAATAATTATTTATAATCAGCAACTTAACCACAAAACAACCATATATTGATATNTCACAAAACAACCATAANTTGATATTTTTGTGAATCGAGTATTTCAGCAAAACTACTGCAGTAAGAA

- Variants of: B1
- procedure.summary: relative integration efficiency (T-RL orientation) vs wild-type transposon end (log2 (normalized fold change)); transposon end mutated: left end; higher = more efficient transposition
- test.context: with VchCAST RNA-guided transposition machinery (E. coli BL21(DE3) host, lacZ target)
measure: relative integration efficiency (log2)
Provide a numeric answer; units are not to be included.

CG A15T A16T	-0.219
CA G24A T30A T104A T110A T113A	-0.387
CG A88G	-0.24
CG A58G	-0.101

Field relative integration efficiency (log2) (entry CG C98G ) reads -0.464

Field relative integration efficiency (log2) (entry CG T78A ) reads 0.0885
